# measurement target: ACAT (acyl-CoA: cholesterol acyl transferase) (Mus musculus)
# Construct: endogenous in cells; host or cells: primary adherent peritoneal macrophages from unstimulated female DDY mice
# Sequence (Q61263 whole entry): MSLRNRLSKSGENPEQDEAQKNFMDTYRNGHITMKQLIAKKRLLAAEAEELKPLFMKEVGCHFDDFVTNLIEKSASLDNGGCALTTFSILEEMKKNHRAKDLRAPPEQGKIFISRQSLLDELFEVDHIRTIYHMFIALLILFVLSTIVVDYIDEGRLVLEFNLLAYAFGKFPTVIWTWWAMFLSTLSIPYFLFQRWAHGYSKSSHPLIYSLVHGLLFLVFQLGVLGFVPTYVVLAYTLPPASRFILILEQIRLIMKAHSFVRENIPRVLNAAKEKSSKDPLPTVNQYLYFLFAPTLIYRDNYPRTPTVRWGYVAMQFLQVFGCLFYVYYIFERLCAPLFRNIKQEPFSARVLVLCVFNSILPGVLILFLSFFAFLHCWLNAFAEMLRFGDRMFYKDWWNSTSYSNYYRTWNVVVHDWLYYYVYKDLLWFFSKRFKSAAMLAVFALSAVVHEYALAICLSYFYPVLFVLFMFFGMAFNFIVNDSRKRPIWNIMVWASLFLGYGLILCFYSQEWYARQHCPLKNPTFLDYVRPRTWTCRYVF
# measurement notes: Inhibition of ACAT in M.phi. (mouse peritoneal macrophages)
# Format: cell-based, mouse (female DDY mice)
# condition summary: β-VLDL 50 μg cholesterol/ml, [14C]oleate-albumin, 37° C., 3 hours
pIC50: −log10 of the molar value.
assay metric: pIC50

Observe how each entry below is paired with its result.
CCCCCC(CC(=O)Nc1cc(COC(N)=O)ccc1C(C)(C)C)c1ccc(OC)cc1OC (stereo not shown) :: 7.17
CCCCCC(CC(=O)Nc1cc(CNC(=O)c2cccnc2)ccc1C(C)(C)C)c1ccc(OC)cc1OC (stereo not shown) :: 7.75
CCCCCC(CC(=O)Nc1cc(C(=O)NC(=O)C(C)C)ccc1C(C)(C)C)c1ccc(OC)cc1OC (stereo not shown) :: 7.76
CCCCCC(CC(=O)Nc1cc(CC#N)ccc1C(C)(C)C)c1ccc(OC)cc1OC (stereo not shown) :: 7.54
CCCCCC(CC(=O)Nc1cc(C(N)=O)ccc1C(C)(C)C)c1ccc(OC)cc1OC (stereo not shown) :: 7.38
CCCCCC(CC(=O)Nc1cc(CNC(=O)N(C)C)ccc1C(C)(C)C)c1ccc(OC)cc1OC (stereo not shown) :: 7.98
CCCCCC(CC(=O)Nc1cc(CC(=O)NC)ccc1C(C)(C)C)c1ccc(OC)cc1OC (stereo not shown) :: 7.51
CCCCCC(CC(=O)Nc1cc(CCC(=O)NC)ccc1C(C)(C)C)c1cc(OC)c(OC)cc1OC (stereo not shown) :: 7.10
CCCCCC(CC(=O)Nc1cc(CC(N)=O)ccc1C(C)(C)C)c1ccc(OC)cc1OC (stereo not shown) :: 8.22
CCCCCC(CC(=O)Nc1cc(C(=O)Nc2ccccn2)ccc1C(C)(C)C)c1c(OC)cccc1OC (stereo not shown) :: 8.86

(A) CCCCCC(CC(=O)Nc1cc(CN2C(=O)c3ccccc3C2=O)ccc1C(C)(C)C)c1cccc2c1OCCO2 (stereo not shown)
(B) CCCCCC(CC(=O)Nc1cc(CNC(=O)NC(C)C)ccc1C(C)(C)C)c1cccc2c1OCCO2 (stereo not shown)
(C) CCCCCC(CC(=O)Nc1cc(CNS(=O)(=O)CC)ccc1C(C)(C)C)c1ccc(OC)cc1OC (stereo not shown)
(D) CCCCCC(CC(=O)Nc1cc(C(=O)NC)ccc1C(C)(C)C)c1cc(C(=O)NC)c(OC)cc1OC (stereo not shown)
Sort these compounds on pIC50 so the largest reading comes first. In your reply, arrange the labels in the requested order. C, B, A, D
(C: 8.01, B: 7.76, A: 7.45, D: 7.20)

(a) CCCCCC(CC(=O)Nc1cc(C(=O)NC(=O)c2cccnc2)ccc1C(C)(C)C)c1ccc(OC)cc1OC (stereo not shown)
(b) CCCCCCC(CC(=O)Nc1cc(C(N)=O)ccc1C(C)(C)C)c1ccc(OC)cc1OC (stereo not shown)
Between a and b , whose recorded pIC50 is greater? API: response body contains the label of the selected item. a
(a: 8.02, b: 7.63)

The origin of these recorded values is patent US5880147A.
